# inhibition of growth at 10 µM per record follows
system: MCF7; assay: Growth inhibition of human MCF7 cells at 10 uM after 48 hrs by SRB assay relative to control; format: functional; conditions: MCF7, 48 h, read-out: GI
reported_endpoint: inhibition of growth at 10 µM (%)

compound	study_system	reported_endpoint	unit_of_measurement	result
C=C(C)[C@@H]1CC[C@]2(C(=O)O)CC[C@]3(C)[C@H](CC[C@@H]4[C@@]5(C)CC[C@H](O)C(C)(C)[C@@H]5CC[C@]43C)[C@@H]12 [BETULINIC ACID]	MCF7	inhibition of growth at 10 µM	%	28
C=C(C)[C@@H]1CC[C@]2(C(=O)O)CC[C@]3(C)[C@H](CC[C@@H]4[C@@]5(C)C/C(=C\c6cccc([N+](=O)[O-])c6)C(=O)C(C)(C)[C@@H]5CC[C@]43C)[C@@H]12	MCF7	inhibition of growth at 10 µM	%	70
C=C(C)[C@@H]1CC[C@]2(C(=O)O)CC[C@]3(C)[C@H](CC[C@@H]4[C@@]5(C)C/C(=C\c6ccc(Br)cc6)[C@H](O)C(C)(C)[C@@H]5CC[C@]43C)[C@@H]12	MCF7	inhibition of growth at 10 µM	%	64
C=C(C)[C@@H]1CC[C@]2(C(=O)O)CC[C@]3(C)[C@H](CC[C@@H]4[C@@]5(C)C/C(=C\c6ccc(F)cc6)C(=O)C(C)(C)[C@@H]5CC[C@]43C)[C@@H]12	MCF7	inhibition of growth at 10 µM	%	95
C=C(C)[C@@H]1CC[C@]2(C(=O)O)CC[C@]3(C)[C@H](CC[C@@H]4[C@@]5(C)C/C(=C\c6ccsc6)[C@H](O)C(C)(C)[C@@H]5CC[C@]43C)[C@@H]12	MCF7	inhibition of growth at 10 µM	%	79
C=C(C)[C@@H]1CC[C@]2(C(=O)O)CC[C@]3(C)[C@H](CC[C@@H]4[C@@]5(C)C/C(=C\c6cccc(Br)c6)C(=O)C(C)(C)[C@@H]5CC[C@]43C)[C@@H]12	MCF7	inhibition of growth at 10 µM	%	56
C=C(C)[C@@H]1CC[C@]2(C(=O)O)CC[C@]3(C)[C@H](CC[C@@H]4[C@@]5(C)C/C(=C\c6c(Cl)cccc6Cl)[C@H](O)C(C)(C)[C@@H]5CC[C@]43C)[C@@H]12	MCF7	inhibition of growth at 10 µM	%	56
C=C(C)[C@@H]1CC[C@]2(C(=O)O)CC[C@]3(C)[C@H](CC[C@@H]4[C@@]5(C)C/C(=C\c6cccc(Br)c6)[C@H](O)C(C)(C)[C@@H]5CC[C@]43C)[C@@H]12	MCF7	inhibition of growth at 10 µM	%	65
C=C(C)[C@@H]1CC[C@]2(C(=O)O)CC[C@]3(C)[C@H](CC[C@@H]4[C@@]5(C)C/C(=C\c6ccsc6)C(=O)C(C)(C)[C@@H]5CC[C@]43C)[C@@H]12	MCF7	inhibition of growth at 10 µM	%	92
C=C(C)[C@@H]1CC[C@]2(C(=O)O)CC[C@]3(C)[C@H](CC[C@@H]4[C@@]5(C)C/C(=C\c6ccc(Br)o6)C(=O)C(C)(C)[C@@H]5CC[C@]43C)[C@@H]12	MCF7	inhibition of growth at 10 µM	%	92

====

tested on: MIA PaCa-2; assay: Growth inhibition of human MIAPaCa2 at 10 uM after 48 hrs by SRB assay relative to control; format: functional; conditions: MIA PaCa-2, 48 h, read-out: GI

smiles_data	study_system	inhibition of growth at 10 µM, %
C=C(C)[C@@H]1CC[C@]2(C(=O)O)CC[C@]3(C)[C@H](CC[C@@H]4[C@@]5(C)C/C(=C\c6ccc([N+](=O)[O-])cc6)C(=O)C(C)(C)[C@@H]5CC[C@]43C)[C@@H]12	MIA PaCa-2	61
C=C(C)[C@@H]1CC[C@]2(C(=O)O)CC[C@]3(C)[C@H](CC[C@@H]4[C@@]5(C)C/C(=C\c6ccsc6)C(=O)C(C)(C)[C@@H]5CC[C@]43C)[C@@H]12	MIA PaCa-2	76
C=C(C)[C@@H]1CC[C@]2(C(=O)O)CC[C@]3(C)[C@H](CC[C@@H]4[C@@]5(C)C/C(=C\c6cccc([N+](=O)[O-])c6)C(=O)C(C)(C)[C@@H]5CC[C@]43C)[C@@H]12	MIA PaCa-2	31
C=C(C)[C@@H]1CC[C@]2(C(=O)O)CC[C@]3(C)[C@H](CC[C@@H]4[C@@]5(C)C/C(=C\c6cccc([N+](=O)[O-])c6)[C@H](O)C(C)(C)[C@@H]5CC[C@]43C)[C@@H]12	MIA PaCa-2	80
C=C(C)[C@@H]1CC[C@]2(C(=O)O)CC[C@]3(C)[C@H](CC[C@@H]4[C@@]5(C)C/C(=C\c6ccc(Br)o6)[C@H](O)C(C)(C)[C@@H]5CC[C@]43C)[C@@H]12	MIA PaCa-2	34
C=C(C)[C@@H]1CC[C@]2(C(=O)O)CC[C@]3(C)[C@H](CC[C@@H]4[C@@]5(C)C/C(=C\c6cccc7ccccc67)[C@H](O)C(C)(C)[C@@H]5CC[C@]43C)[C@@H]12	MIA PaCa-2	62
C=C(C)[C@@H]1CC[C@]2(C(=O)O)CC[C@]3(C)[C@H](CC[C@@H]4[C@@]5(C)C/C(=C\c6ccc(OC)cc6)C(=O)C(C)(C)[C@@H]5CC[C@]43C)[C@@H]12	MIA PaCa-2	71
C=C(C)[C@@H]1CC[C@]2(C(=O)O)CC[C@]3(C)[C@H](CC[C@@H]4[C@@]5(C)C/C(=C\c6ccccc6Br)[C@H](O)C(C)(C)[C@@H]5CC[C@]43C)[C@@H]12	MIA PaCa-2	49
C=C(C)[C@@H]1CC[C@]2(C(=O)O)CC[C@]3(C)[C@H](CC[C@@H]4[C@@]5(C)C/C(=C\c6cc(Br)ccc6OC)[C@H](O)C(C)(C)[C@@H]5CC[C@]43C)[C@@H]12	MIA PaCa-2	16
C=C(C)[C@@H]1CC[C@]2(C(=O)O)CC[C@]3(C)[C@H](CC[C@@H]4[C@@]5(C)C/C(=C\c6cccnc6)C(=O)C(C)(C)[C@@H]5CC[C@]43C)[C@@H]12	MIA PaCa-2	97
